Source: the supplement of paper PMC10724198

- Tested on: Saccharomyces cerevisiae
- Assay protocol: protein stability index of tFT-peptide fusion (C-terminal peptide) (PSI (0-1 scale)); higher = more stable (slower turnover)
- Measurement parameters: genetic background: cdc53-1; temperature: 37 C
Test readout: protein stability index
The response must contain the number and no unit.

Consider the reported protein stability index for these sequences:
Seq text | Target under test | Test readout | Endpoint value
FLIFVVIGGVGL | Saccharomyces cerevisiae | protein stability index | 0.395
ISVRKTFLIVLC | Saccharomyces cerevisiae | protein stability index | 0.351
RERRISRIPCLS | Saccharomyces cerevisiae | protein stability index | 0.678
SVGWGFWARFIG | Saccharomyces cerevisiae | protein stability index | 0.756

Req: Supply protein stability index value. Item: GPWVIFSHLLLT
Resp: 0.49

Req: Return protein stability index for the following sequence: LLCSPPPLTVPA
Resp: 0.442

Req: Give a short answer stating reported protein stability index for RGSRLVPRLLRP .
Resp: 0.705

###

Measured protein stability index of individual entries
- System: Saccharomyces cerevisiae
- Assay protocol: protein stability index of tFT-peptide fusion (C-terminal peptide) (PSI (0-1 scale)); higher = more stable (slower turnover)
- Measurement parameters: genetic background: wild type; temperature: 30 C
No unit in the answer, only the number.

For orientation, consider the following solved cases.
Seq text | protein stability index
FLSMTYASLVNK [YLR294C C-terminal 12 aa] | 0.706
WRSIGSGPIMEF [BUG1 C-terminal 12 aa] | 0.719
LDFAKRKLKKKQ [TFB2 C-terminal 12 aa] | 0.622
SDLQKMLNKRKS [CWC24 C-terminal 12 aa] | 0.682

Req: For the sequence KHGTMQFYWRKT [YOR225W C-terminal 12 aa] , give its measured protein stability index value.
Resp: 0.386

Req: Supply measured protein stability index of GECVLTKNNKFT [ATG21 C-terminal 12 aa] in your reply.
Resp: 0.652

Req: State, in one line, measured protein stability index of KTDKVLYKRNGY [HPA3 C-terminal 12 aa]
Resp: 0.675

Req: Write down protein stability index measured for item FHLNAKTRESEI [YDL162C C-terminal 12 aa]
Resp: 0.68

Req: Annotate the sequence IKPSWENEKNIS [ARG2 C-terminal 12 aa] with its measured protein stability index.
Resp: 0.684

Req: Answer with the recorded protein stability index of PIAAIKEILDQV [DSF1 C-terminal 12 aa] only.
Resp: 0.639

Req: Supply reported protein stability index belonging to this sequence: LQALIIVQVMFS [YLL059C C-terminal 12 aa]
Resp: 0.157

Req: Please give measured protein stability index of the following entry: RERAKKLVTWLI [SSY1 C-terminal 12 aa]
Resp: 0.475

Req: For TYNSYTEPEELR [FMP27 C-terminal 12 aa] , write its protein stability index.
Resp: 0.716

Req: Name the recorded protein stability index of the sequence listed here: VLIVLLVLAFIA [TLG1 C-terminal 12 aa]
Resp: 0.286

Req: Please indicate protein stability index recorded for NGANIFITSALT [YGL176C C-terminal 12 aa]
Resp: 0.684

Req: State, in one line, measured protein stability index of CKQWEISNMLKK [CSI1 C-terminal 12 aa]
Resp: 0.664

Req: Recall and state the measured protein stability index for KKKNRSKIKFNY [PTH4 C-terminal 12 aa] .
Resp: 0.589

Req: Provide measured protein stability index value, entry: IDIPVQVKNSFI [YNR068C C-terminal 12 aa]
Resp: 0.706

###

Measured protein stability index by item
- Test system: Saccharomyces cerevisiae
- Assay protocol: protein stability index of tFT-peptide fusion (C-terminal peptide) (PSI (0-1 scale)); higher = more stable (slower turnover)
- Measurement parameters: genetic background: das1 deletion; temperature: 37 C
Keep it simple and answer with nothing but the number.

Answered cases to consult:
Seq text | protein stability index
LCLLHCSICISF | 0.449
RHIRGLNLIKLI | 0.69
DVYIVLFIIKHG | 0.442
VVSVVVLVNSRG | 0.54
YRFVWRWIPICA | 0.116

Req: Give me measured protein stability index, please, for this sequence: ETVHVISLIAIG
Resp: 0.527

###

- Test system: Saccharomyces cerevisiae
- Assay protocol: protein stability index of tFT-peptide fusion (C-terminal peptide) (PSI (0-1 scale)); higher = more stable (slower turnover)
- Measurement parameters: genetic background: wild type; temperature: 30 C
// reported protein stability index per item

Seq text | protein stability index
VWGGNGRAASQL | 0.742
VSLLSLRAFYKL | 0.667
VGKCGSGCLHST | 0.631
GFTGWGRRGLGG | 0.716
HRKNKYKRKTTK | 0.676

Req: Report protein stability index for GAFAGDVWRCVV
Resp: 0.297

Req: Note down protein stability index recorded for VSGFFFWRSSFV
Resp: 0.678

Req: Let me know recorded protein stability index for DSAWSWTLLFVG , thanks.
Resp: 0.63

Req: Give reported protein stability index value for LGRRGVVRVSPR
Resp: 0.687

Req: Answer with the recorded protein stability index of LYLEAYFCIFHF only.
Resp: 0.36

###

- Tested on: Saccharomyces cerevisiae
- Assay protocol: protein stability index of tFT-peptide fusion (C-terminal peptide) (PSI (0-1 scale)); higher = more stable (slower turnover)
- Measurement parameters: genetic background: das1 deletion; temperature: 30 C
Label t when protein stability index is at or above 0.4; anything below gets f.

Seq text | Label
RVEPYDLARRVL | t
MSCILFCCLVPF | t
LSRLWVVGWVVA | f
MAMMQTILIIIH | f
GKHILLISLNIT | f

Req: # bool: protein stability index of ILFCVRIGLFWT >= 0.4
Resp: f

Req: Kindly determine if protein stability index recorded for VRINLLFVWFSR is above or exactly 0.4.
Resp: f

Req: Hello, I need to know if APPPVAPAPGSA has measured protein stability index not below 0.4. Thanks!
Resp: t

Req: Is it the case that LTIYPLTYCFVS has protein stability index reaching or exceeding 0.4?
Resp: t

Req: Does the reported protein stability index for ERWSPWIVVFTN fall at or above the 0.4 mark?
Resp: t

###

- System: Saccharomyces cerevisiae
- Assay protocol: protein stability index of tFT-peptide fusion (C-terminal peptide) (PSI (0-1 scale)); higher = more stable (slower turnover)
- Measurement parameters: genetic background: das1 deletion; temperature: 30 C
Recorded protein stability index, one value per entry.
Write the value as a bare number.

Seq text | protein stability index
LNFFAEETLDFE [EAT1 C-terminal 12 aa] | 0.734
IWKPAGNLVGHS [MSI1 C-terminal 12 aa] | 0.698
LSQLVKKKPRRH [HIF1 C-terminal 12 aa] | 0.689
TIAIGKIVKIAE [SUP35 C-terminal 12 aa] | 0.709
WVAHSKTKLATK [CAB2 C-terminal 12 aa] | 0.677
LGYTDDEIYNRQ [SER2 C-terminal 12 aa] | 0.706

Req: Indicate its recorded protein stability index; the sequence in question is SSLDEVLAKDKD [MIN8 C-terminal 12 aa]
Resp: 0.736

Req: Item RDFFFKNVCVKM [TBS1 C-terminal 12 aa] : provide protein stability index
Resp: 0.623

Req: Tell us which protein stability index value is on record for ETIWTEWHNLKK [DIG2 C-terminal 12 aa]
Resp: 0.726

Req: Return the recorded protein stability index value; entry: LTSMSARIAFDN [AAD14 C-terminal 12 aa]
Resp: 0.722

Req: Give the reported value of protein stability index for this record: YKTEYPEWALRR [PUS9 C-terminal 12 aa]
Resp: 0.723

###

- System: Saccharomyces cerevisiae
- Assay protocol: protein stability index of tFT-peptide fusion (C-terminal peptide) (PSI (0-1 scale)); higher = more stable (slower turnover)
- Measurement parameters: genetic background: wild type; temperature: 30 C
Listing of entries alongside the reported protein stability index.
Give your answer as a number; write no unit.

Solved cases below.
Seq text | protein stability index
VFSARVVGGVLF | 0.681
KGGKVGRAGEKG | 0.644
PRPSPPLPPPSS | 0.473
PLPPPRPSPGLL | 0.67
VGGGPVWREPGT | 0.796

Req: Identify the reported protein stability index for the following entry. YAVGWLLGGLWD
Resp: 0.765

Req: Return protein stability index (reported value) for this sequence: KDNAPTLPQGGN
Resp: 0.662

###

- System: Saccharomyces cerevisiae
- Assay protocol: protein stability index of tFT-peptide fusion (C-terminal peptide) (PSI (0-1 scale)); higher = more stable (slower turnover)
- Measurement parameters: genetic background: wild type; temperature: 30 C
Measured protein stability index accompanies every entry in the list below.
API note: the answer field is a bare number with no unit suffix.

Seq text | Target under test | Endpoint value
AAGGASRHLSGS | Saccharomyces cerevisiae | 0.71
KVKGGELVRTLR | Saccharomyces cerevisiae | 0.736
RIKTRDVSGNYC | Saccharomyces cerevisiae | 0.708
EKIRSARKKTIH | Saccharomyces cerevisiae | 0.735
PCGLRLAFRLSL | Saccharomyces cerevisiae | 0.619
IASLVSVCFLRD | Saccharomyces cerevisiae | 0.683
SPPSRASFPPPS | Saccharomyces cerevisiae | 0.682
GEGHVRCCFSLR | Saccharomyces cerevisiae | 0.699

Req: Specify measured protein stability index for PPHASRAPPFPR .
Resp: 0.671

Req: Please indicate protein stability index recorded for CREFLQSMLFYC
Resp: 0.373
